Biological target: P2X purinoceptor 7 (Rattus norvegicus)
Sequence (Q64663 whole entry): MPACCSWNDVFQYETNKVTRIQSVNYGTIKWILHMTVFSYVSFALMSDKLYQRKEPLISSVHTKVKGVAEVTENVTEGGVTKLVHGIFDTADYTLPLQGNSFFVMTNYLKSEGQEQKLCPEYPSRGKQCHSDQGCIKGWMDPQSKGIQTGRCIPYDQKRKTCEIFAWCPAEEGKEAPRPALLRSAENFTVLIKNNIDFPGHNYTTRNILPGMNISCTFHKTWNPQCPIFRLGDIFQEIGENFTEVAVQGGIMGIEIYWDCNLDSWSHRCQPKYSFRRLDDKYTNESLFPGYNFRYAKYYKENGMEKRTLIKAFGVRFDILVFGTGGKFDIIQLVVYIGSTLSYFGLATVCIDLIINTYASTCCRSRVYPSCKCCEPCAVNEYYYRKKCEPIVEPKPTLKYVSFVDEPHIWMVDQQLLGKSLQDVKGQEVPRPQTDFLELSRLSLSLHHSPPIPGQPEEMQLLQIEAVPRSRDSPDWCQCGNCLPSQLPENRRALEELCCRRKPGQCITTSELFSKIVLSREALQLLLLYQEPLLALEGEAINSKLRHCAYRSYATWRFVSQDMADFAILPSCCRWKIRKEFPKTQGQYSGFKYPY
Test: Antagonist activity at recombinant rat P2X7 receptor expressed in human 1321N1 cells assessed as inhibition of Bz-ATP-induced Ca2+ flux preincubated for 30 mins followed by agonist addition measured after 180 sec by calcium-4 dye based FLIPR assay
pIC50: −log10 of the molar value.

[
  {
    "compound": "O=C(c1cccc(C(F)(F)F)c1F)N1CCc2c(ncn2-c2ccc(F)cn2)C1",
    "test.system": "P2X purinoceptor 7 (Rattus norvegicus)",
    "readout.relation": "<",
    "pIC50": 5.00
  },
  {
    "compound": "CC1c2ncn(-c3cnccn3)c2CCN1C(=O)c1cccc(C(F)(F)F)c1Cl (configuration not stated)",
    "test.system": "P2X purinoceptor 7 (Rattus norvegicus)",
    "readout.relation": "=",
    "pIC50": 5.91
  }
]
